# Lookup of reported total protein half-life in vivo keyed by entry
- Test Description: total protein half-life in vivo (active degradation + dilution); higher = more stable protein
- Assay Setup: wild type E. coli NCM3722; growth: C-lim chemostat; doubling time 6 h
Supply the numeric figure in h, leaving out any unit text.

The cases that follow already have their total protein half-life in vivo on record.
| Input Sequence | Readout Unit | Observed Measurement |
| --- | --- | --- |
| MIRQRRRALTPEQQQEMGQQAATRMMTYPPVVMAHTVAVFLSFDGELDTQPLIEQLWRAGKRVYLPVLHPFSAGNLLFLNYHPQSELVMNRLKIHEPKLDVRDVLPLSRLDVLITPLVAFDEYGQRLGMGGGFYDRTLQNWQHYKTQPVGYAHDCQLVEKLPVEEWDIPLPAVVTPSKVWEW [P0AC28] | h | 4.81 |
| MEFFKKTALAALVMGFSGAALALPNITILATGGTIAGGGDSATKSNYTVGKVGVENLVNAVPQLKDIANVKGEQVVNIGSQDMNDNVWLTLAKKINTDCDKTDGFVITHGTDTMEETAYFLDLTVKCDKPVVMVGAMRPSTSMSADGPFNLYNAVVTAADKASANRGVLVVMNDTVLDGRDVTKTNTTDVATFKSVNYGPLGYIHNGKIDYQRTPARKHTSDTPFDVSKLNELPKVGIVYNYANASDLPAKALVDAGYDGIVSAGVGNGNLYKSVFDTLATAAKTGTAVVRSSRVPTGATTQDAEVDDAKYGFVASGTLNPQKARVLLQLALTQTKDPQQIQQIFNQY | h | 5.38 |

Turning to the following sequence.
Entry MKNIVPDYRLDMVGEPCPYPAVATLEAMPQLKKGEILEVVSDCPQSINNIPLDARNHGYTVLDIQQDGPTIRYLIQK [P0AA31] , total protein half-life in vivo reported as 5.2

----------
- Test Description: total protein half-life in vivo (active degradation + dilution); higher = more stable protein
- Assay Setup: wild type E. coli NCM3722; growth: C-lim chemostat; doubling time 12 h
Readout Type: total protein half-life in vivo
Entry format: amount then unit.

The cases that follow already have their total protein half-life in vivo on record.
| Input Sequence | total protein half-life in vivo |
| --- | --- |
| MIYLRKANERGHANHGWLDSWHTFSFANYYDPNFMGFSALRVINDDVIEAGQGFGTHPHKDMEILTYVLEGTVEHQDSMGNKEQVPAGEFQIMSAGTGIRHSEYNPSSTERLHLYQIWIMPEENGITPRYEQRRFDAVQGKQLVLSPDARDGSLKVHQDMELYRWALLKDEQSVHQIAAERRVWIQVVKGNVTINGVKASTSDGLAIWDEQAISIHADSDSEVLLFDLPPV | 8.6 h |
| MNPIVINRLQRKLGYTFNHQELLQQALTHRSASSKHNERLEFLGDSILSYVIANALYHRFPRVDEGDMSRMRATLVRGNTLAELAREFELGECLRLGPGELKSGGFRRESILADTVEALIGGVFLDSDIQTVEKLILNWYQTRLDEISPGDKQKDPKTRLQEYLQGRHLPLPTYLVVQVRGEAHDQEFTIHCQVSGLSEPVVGTGSSRRKAEQAAAEQALKKLELE [P0A7Y0] | 8.37 h |

Turning to the following sequence.
Entry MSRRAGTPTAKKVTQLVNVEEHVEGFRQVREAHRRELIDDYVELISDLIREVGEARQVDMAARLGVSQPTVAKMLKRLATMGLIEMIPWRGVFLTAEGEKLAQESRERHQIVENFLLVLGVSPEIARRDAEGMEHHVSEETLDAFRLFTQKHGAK [P0A9F1] , total protein half-life in vivo reported as 12 h

----------
# Lookup of reported total protein half-life in vivo keyed by entry
- Test Description: total protein half-life in vivo (active degradation + dilution); higher = more stable protein
- Assay Setup: wild type E. coli NCM3722; growth: P-lim chemostat; doubling time 6 h
Supply the numeric figure in h, leaving out any unit text.

| Input Sequence | Readout Type | Observed Measurement |
| --- | --- | --- |
| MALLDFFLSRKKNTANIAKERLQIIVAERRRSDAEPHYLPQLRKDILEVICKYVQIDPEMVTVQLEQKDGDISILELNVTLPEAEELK [P0A734] | total protein half-life in vivo | 4.14 |
| MSNTPIELKGSSFTLSVVHLHEAEPKVIHQALEDKIAQAPAFLKHAPVVLNVSALEDPVNWSAMHKAVSATGLRVIGVSGCKDAQLKAEIEKMGLPILTEGKEKAPRPAPTPQAPAQNTTPVTKTRLIDTPVRSGQRIYAPQCDLIVTSHVSAGAELIADGNIHVYGMMRGRALAGASGDRETQIFCTNLMAELVSIAGEYWLSDQIPAEFYGKAARLQLVENALTVQPLN | total protein half-life in vivo | 5.44 |
| MNMMRIFYIGLSGVGMMFSSMASGNDAGGLQSPACGVVCDPYICVNSDGISPELTRKYLGEKAAENLQSLQGYDPSEFTFANGVFCDVKEKLCRDDRYFGVDGKRSGKINQTTTKMLFMCRE | total protein half-life in vivo | 4.78 |
| MYTLNWQPPYDWSWMLGFLAARAVSSVETVADSYYARSLAVGEYRGVVTAIPDIARHTLHINLSAGLEPVAAECLAKMSRLFDLQCNPQIVNGALGRLGAARPGLRLPGCVDAFEQGVRAILGQLVSVAMAAKLTARVAQLYGERLDDFPEYICFPTPQRLAAADPQALKALGMPLKRAEALIHLANAALEGTLPMTIPGDVEQAMKTLQTFPGIGRWTANYFALRGWQAKDVFLPDDYLIKQRFPGMTPAQIRRYAERWKPWRSYALLHIWYTEGWQPDEA | total protein half-life in vivo | 3.45 |
| MIAELFTNNALNLVIIFGSCAALILMSFWFRRGNRKRKGFLFHAVQFLIYTIIISAVGSIINYVIENYKLKFITPGVIDFICTSLIAVILTIKLFLLINQFEKQQIKKGRDITSARIMSRIIKITIIVVLVLLYGEHFGMSLSGLLTFGGIGGLAVGMAGKDILSNFFSGIMLYFDRPFSIGDWIRSPDRNIEGTVAEIGWRITKITTFDNRPLYVPNSLFSSISVENPGRMTNRRITTTIGLRYEDAAKVGVIVEAVREMLKNHPAIDQRQTLLVYFNQFADSSLNIMVYCFTKTTVWAEWLAAQQDVYLKIIDIVQSHGADFAFPSQTLYMDNITPPEQGR [P0AEB5] | total protein half-life in vivo | 5.86 |
| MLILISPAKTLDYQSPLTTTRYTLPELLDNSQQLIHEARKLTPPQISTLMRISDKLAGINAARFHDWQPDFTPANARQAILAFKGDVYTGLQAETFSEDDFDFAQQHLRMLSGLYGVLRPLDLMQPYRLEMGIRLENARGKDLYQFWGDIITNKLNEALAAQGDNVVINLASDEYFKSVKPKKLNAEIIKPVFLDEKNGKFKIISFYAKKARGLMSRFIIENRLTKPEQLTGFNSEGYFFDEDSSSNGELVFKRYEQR [P0A8I3] | total protein half-life in vivo | 3.39 |
| MKTMLAAYLPGNSTVDLREVAVPTPGINQVLIKMKSSGICGSDVHYIYHQHRATAAAPDKPLYQGFINGHEPCGQIVAMGQGCRHFKEGDRVLVYHISGCGFCPNCRRGFPISCTGEGKAAYGWQRDGGHAEYLLAEEKDLILLPDALSYEDGAFISCGVGTAYEGILRGEVSGSDNVLVVGLGPVGMMAMMLAKGRGAKRIIGVDMLPERLAMAKQLGVMDHGYLATTEGLPQIIAELTHGGADVALDCSGNAAGRLLALQSTADWGRVVYIGETGKVEFEVSADLMHHQRRIIGSWVTSLFHMEKCAHDLTDWKLWPRNAITHRFSLEQAGDAYALMASGKCGKVVINFPD | total protein half-life in vivo | 4.27 |
| MTITSLDGYRWLKNDIIRGNFQPDEKLRMSLLTSRYALGVGPLREALSQLVAERLVTVVNQKGYRVASMSEQELLDIFDARANMEAMLVSLAIARGGDEWEADVLAKAHLLSKLEACDASEKMLDEWDLRHQAFHTAIVAGCGSHYLLQMRERLFDLAARYRFIWLRRTVLSVEMLEDKHDQHQTLTAAVLARDTARASELMRQHLLTPIPIIQQAMAGN | total protein half-life in vivo | 1.56 |
| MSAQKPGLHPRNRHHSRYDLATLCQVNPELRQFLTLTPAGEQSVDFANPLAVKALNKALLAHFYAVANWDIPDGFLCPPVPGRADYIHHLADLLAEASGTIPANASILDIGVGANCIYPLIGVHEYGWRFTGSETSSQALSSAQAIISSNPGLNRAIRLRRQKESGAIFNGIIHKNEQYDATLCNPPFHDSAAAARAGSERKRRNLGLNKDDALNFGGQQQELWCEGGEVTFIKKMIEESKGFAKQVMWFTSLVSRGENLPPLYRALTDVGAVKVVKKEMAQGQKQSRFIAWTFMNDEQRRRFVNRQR | total protein half-life in vivo | 5.28 |
| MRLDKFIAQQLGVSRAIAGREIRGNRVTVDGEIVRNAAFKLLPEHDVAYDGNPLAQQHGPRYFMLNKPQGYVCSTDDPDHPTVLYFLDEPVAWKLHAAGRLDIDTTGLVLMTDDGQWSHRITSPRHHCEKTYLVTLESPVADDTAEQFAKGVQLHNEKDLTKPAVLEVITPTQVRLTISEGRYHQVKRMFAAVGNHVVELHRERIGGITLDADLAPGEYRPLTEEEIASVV [P0AA43] | total protein half-life in vivo | 4 |

Entry MQTEQQRAVTRLCIQCGLFLLQHGAESALVDELSSRLGRALGMDSVESSISSNAIVLTTIKDGQCLTSTRKNHDRGINMHVVTEVQHIVILAEHHLLDYKGVEKRFSQIQPLRYPRWLVALMVGLSCACFCKLNNGGWDGAVITFFASTTAMYIRQLLAQRHLHPQINFCLTAFAATTISGLLLQLPTFSNTPTIAMAASVLLLVPGFPLINAVADMFKGHINTGLARWAIASLLTLATCVGVVMALTIWGLRGWV [P0ADD5] , total protein half-life in vivo reported as 6.86

Entry MSSNFRHQLLSLSLLVGIAAPWAAFAQAPISSVGSGSVEDRVTQLERISNAHSQLLTQLQQQLSDNQSDIDSLRGQIQENQYQLNQVVERQKQILLQIDSLSSGGAAAQSTSGDQSGAAASTTPTADAGTANAGAPVKSGNANTDYNAAIALVQDKSRQDDAMVAFQNFIKNYPDSTYLPNANYWLGQLNYNKGKKDDAAYYFASVVKNYPKSPKAADAMFKVGVIMQDKGDTAKAKAVYQQVISKYPGTDGAKQAQKRLNAM , total protein half-life in vivo reported as 5.31
